Organism: Rattus norvegicus
Assay comment: Open TG-GATES - Regimen: Single
Format: toxicity, organism-based, Sprague-Dawley
Set-up: regimen Single, gender Male, age 6 weeks
Condition: in vivo, po, 0 mg/kg, 24 h, tissue Plasma, route gavage, dose level Control
This section presents compounds with their documented RALB values.
The reply should contain only the number, in g/dL.

Example entries begin here.
CN/C(=N/CCSCc1nc[nH]c1C)NC#N : 3.5
Cc1nnc2n1-c1ccc(Cl)cc1C(c1ccccc1Cl)=NC2 : 2.5
Brc1ccccc1 : 2.6
CS(=O)(=O)O.Cc1ccc(NC(=O)c2ccc(CN3CCN(C)CC3)cc2)cc1Nc1nccc(-c2cccnc2)n1 [IMATINIB MESYLATE] : 4.1
COC(=O)C1=C(C)NC(C)=C(C(=O)OC)C1c1ccccc1[N+](=O)[O-] : 2.7
CC(C)NNC(=O)c1ccncc1 : 3.1

The record that follows has no RALB shown yet.
QUERY: Name the reported RALB value associated with the compound Nc1c2c(nc3ccccc13)CCCC2
RESULT: 3.1

Recorded values, source ChEMBL document CHEMBL3885861.
